B1: Twister Ribozyme (parent)
chain: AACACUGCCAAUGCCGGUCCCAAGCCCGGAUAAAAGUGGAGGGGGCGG

Variants of: B1
Experiment: self-cleavage, relative activity (ratio to wild type); higher = more cleavage; co-transcriptional
Response key: 1 means self-cleavage >= 0.2; 0 means self-cleavage < 0.2.

Variant Label	Class
G39C G43U	0
G13U U18A	0
G7A A35G	0
C20A G43U	0
C14U G39U	1
C3G G28C	0
G16C C21U	0
C3A G47C	0
C26A G41U	0
A1G G41A	0
A33G G38A	1

This collection of values is drawn from the RNAGym collection of RNA variant scans (doi:10.7554/elife.80360).
